Test system: SF-295
assay.protocol: NCI tumour cell line growth inhibition, 48 h
Activity calls are given as the source filed them. Cut-off read from the data, not from the text of the source: active = GI50 up to about 1.1 µM and inactive = higher.
Returns: one label drawn from 1 (yes) for active, 0 (no) for inactive

These solved cases illustrate the format of a correct answer.
Would you mind telling me which call this test gave `CC(C)=CCOc1ccc(-c2coc3cc4c(c(O)c3c2=O)C=CC(C)(C)O4)cc1` ? 0 (no)

Next molecule: `Cc1ccc(Nc2nc3c(s2)C(=O)c2ccccc2C3=O)c(C)c1` 0 (no)

Next molecule: `O=C(/C=C/c1ccco1)c1ccc(NCc2nc3ccccc3[nH]2)cc1` 0 (no)

Next molecule: `CC(C)=CCC/C(C)=C\CC/C(C)=C/CO` 0 (no)

Next molecule: `NCCCN1CCN(CCCNc2ccc3nnn4c5ccccc5c(=O)c2c34)CC1` 0 (no)

Next molecule: `COC(=O)c1cc(-c2cccn2C)c2c(c1C(=O)OC)c1ccccc1n2C` 0 (no)

Continuing:
Would you mind telling me which call this test gave `Cc1cc2c(=O)c3ccccc3oc2c(C#N)c1C` ? 0 (no)

Next molecule: `O=[N+]([O-])c1ccc2c(c1)Cc1cc(/N=C/c3ccc4c(c3)OCO4)ccc1-2` 0 (no)

Next molecule: `C=CCc1cc(-c2cc(CC=C)c(O)c(CNCCCl)c2)cc(CNCCCl)c1O` 0 (no)

Next molecule: COc1ccc(C2SCC(=O)N2c2ccc(-c3ccc(-n4c(-c5ccccc5)nc5ccccc5c4=O)cc3)cc2)cc1 (stereo unspecified) 0 (no)

Next molecule: `COC(=O)/C=C(/C(=O)OC)c1c(C)c(C)c2c(C)cc(C)cc(C)c1-2` 0 (no)

Next molecule: `O=C(/C=C/c1cccs1)c1ccsc1` 0 (no)

Next molecule: COc1ccc(NC(=O)CC(=O)N2N=C(N3c4ccccc4Sc4ccccc43)CC2c2ccccc2)cc1 (stereo unspecified) 0 (no)

Next molecule: `COc1ccc(/C(Nc2ccccc2)=C(\CCl)c2ccccc2)cc1OC` 0 (no)

Next molecule: `Nn1c(-c2cccc(Cl)c2)nc2ccccc2c1=O` 0 (no)

Next molecule: `C1=N\CCOCC/N=C\c2ccc(cc2)OCc2cccc(n2)COc2ccc/1cc2` 0 (no)

Next molecule: `CCOC(=O)Nc1ccc2c(c1)N(C(=O)CCN(CC)CC)c1ccccc1S2` 0 (no)

Next molecule: `CN(C)Cc1cc(C(=O)/C=C/c2ccc(Cl)cc2)cc(CN(C)C)c1O` 0 (no)

----------
Test system: UACC-257
assay.protocol: NCI tumour cell line growth inhibition, 48 h
The source made the active and inactive calls. Cut-off read from the data, not from the text of the source: active = GI50 up to about 1.1 µM and inactive = higher.
metric: GI50

Recorded GI50, per entry:
Please give the measured GI50 for this compound: `O=S(=O)(c1ccccc1)c1ccc(/N=N/O)nc1` > 100 µM (inactive)

Next compound: `O=C1O/C(=C\c2ccc(O)c(Br)c2)C(c2ccc(O)cc2)=C1Cl` 42.7 µM (inactive)

Next compound: Cn1cc2c3ccccc3nc-2c2ccccc21 [ISOCRYPTOLEPINE] 2.31 µM (inactive)

// next entry
Please give the measured GI50 for this compound: `CCOC(=O)c1nc2ccc(C(F)(F)F)cc2nc1NCc1cc(OC)c(OC)c(OC)c1` > 100 µM (inactive)

----------
Let's look at some compounds and their measured GI50.
Tested on: EKVX
assay.protocol: NCI tumour cell line growth inhibition, 48 h
Calls of active or inactive are those of the source. No stated cut-off is given here; in the data, active = GI50 up to about 1.1 µM and inactive = higher.

Recorded GI50, per entry:
Please give the measured GI50 for this compound: `CCOP(=O)(OCC)/C(C#N)=C/c1cccn1CC(C)C` > 100 µM (inactive)

Next compound: `CCN(CC)CC[n+]1ccc2c(C)c3[nH]c4ccc(O)cc4c3c(C)c2c1` 10.8 µM (inactive)

Next compound: `O=C1/C(=C/c2cccnc2)SC(=S)N1Cc1ccco1` 49.5 µM (inactive)

Continuing:
Please give the measured GI50 for this compound: COC(=O)C1=NC(=S)NC(c2ccccc2)C1c1nc2ccccc2s1 (stereo not given) > 100 µM (inactive)

Next compound: `COc1ccc2nc3ccccc3c(NCCCCCCN(C)CCCl)c2c1` 1.39 µM (inactive)

Next compound: `O=C(O)c1cccc(/C=C/c2ccccc2)c1` > 100 µM (inactive)
